Origin of measurements: the supplement of paper PMC12632987

So I've got a bunch of binders here, and I need their median log2 fold change values.
- Study system: T1, USP38, Q8NB14
- T1 chain: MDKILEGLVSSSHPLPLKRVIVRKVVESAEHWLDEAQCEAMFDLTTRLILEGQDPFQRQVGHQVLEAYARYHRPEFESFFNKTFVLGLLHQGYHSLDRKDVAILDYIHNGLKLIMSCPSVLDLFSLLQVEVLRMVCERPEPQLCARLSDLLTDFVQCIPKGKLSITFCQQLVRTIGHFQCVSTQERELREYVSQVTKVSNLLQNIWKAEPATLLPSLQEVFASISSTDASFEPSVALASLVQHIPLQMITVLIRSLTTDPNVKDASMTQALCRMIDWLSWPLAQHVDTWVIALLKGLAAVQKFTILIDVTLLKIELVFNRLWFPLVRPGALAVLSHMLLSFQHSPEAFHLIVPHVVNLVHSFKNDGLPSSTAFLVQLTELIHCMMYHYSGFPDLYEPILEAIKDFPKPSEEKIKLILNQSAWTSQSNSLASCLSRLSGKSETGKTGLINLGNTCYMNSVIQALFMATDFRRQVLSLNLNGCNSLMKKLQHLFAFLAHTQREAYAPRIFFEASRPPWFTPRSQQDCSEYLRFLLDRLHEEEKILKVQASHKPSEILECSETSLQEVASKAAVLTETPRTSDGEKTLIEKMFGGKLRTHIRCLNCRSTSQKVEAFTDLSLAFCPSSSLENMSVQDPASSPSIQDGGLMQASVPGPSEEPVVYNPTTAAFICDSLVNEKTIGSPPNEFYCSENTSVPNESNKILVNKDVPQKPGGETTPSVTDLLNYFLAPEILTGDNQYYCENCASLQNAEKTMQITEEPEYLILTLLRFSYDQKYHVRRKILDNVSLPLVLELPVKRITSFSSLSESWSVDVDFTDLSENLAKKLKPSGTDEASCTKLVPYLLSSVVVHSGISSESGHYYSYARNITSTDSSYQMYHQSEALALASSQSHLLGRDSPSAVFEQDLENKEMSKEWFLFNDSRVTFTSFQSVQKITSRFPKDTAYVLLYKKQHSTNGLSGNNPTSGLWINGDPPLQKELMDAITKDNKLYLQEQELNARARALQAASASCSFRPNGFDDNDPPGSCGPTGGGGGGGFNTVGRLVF
- Experimental details: median log2 fold change of GCK-ALFA target abundance (FLAG IP / Myc IP barcode read proportion) (log2 ratio); each designed protein is fused to an ALFA-tag nanobody in HEK293 cells to bring the named protein to FLAG-tagged glucokinase (GCK); Myc marks an untargeted standard; higher = target protein stabilised (more abundant)
- Reported conditions: target protein: 3xFLAG-MCP-GCK-ALFA reporter; HEK293 landing pad (RPLP)
Answers are plain numbers.

Worked examples follow.
Binder	median log2 fold change
usp_38_diff_out_16_109_172 (protein) SADAEADRLLAEAAIENLRALAEEARRELERLEAKGASEEVLAAYRALAETAEAAAATIEAALAAGKDIRATTDAQWDAVGAAAARASELREAEARARSA	-0.0926
usp_38_diff_out_3_124_513 (protein) AEAEKLAKELDKALKELEKLIKEAEKELDKDPEKLKKLLEEADETLDRAAGLYMQLHELAAEDPSTRPLLKKAREKANKVIDRYTEVRTKALERLAELEE	-0.564
usp_38_diff_out_13_43_64 (protein) LREKAEKALAEADAALGRAYAVSRELRDKMREVNPEDAKKLLKARKKLDEVGNALADARAALETAMILGEGVEEAIPKVQAAVAKLKAAIEEAEKLLKEV	-0.253
usp_38_diff_out_14_2_118 (protein) GEEELKEKKKATLATLDDAIAKAKALEAAVKADPSIAEQARAELRKAWDAAADAVGELERLIREHPEHRELNKEAIKEVNEKLTELTEALLAALQTIAEA	-0.0211
usp_38_diff_out_17_125_220 (protein) SDEELKKKAEELLKKAEELLKQAEKALEEGAPFEEIEKLLDEAADALGELAKTLRELREKSKDPAQAAKFIKEATEKANELIDRYTELATRAFLRQAEAA	0.167
usp_38_diff_out_18_14_271 (protein) SEELAAALQSNLESLERAVREDTERVIRLLEKNRDDPERVKRIVERAERDLAGVEAYAQEVLREARAAGDAATQEAAERLLEEARRAREEIRRKAEEVLA	-0.0538

Batch: median log2 fold change for all items listed.
1. usp_38_diff_out_17_26_241 (protein) SMEERRKEAEELLRRLEEETEKALEEIEKLIEEGKFEEARKLLDEAVDYATETATRILELAADDPELMDRALAVIGRIFDRLAEAYRRLEEARRRAEEEA
2. usp_38_diff_out_16_109_176 (protein) SAQAEADRAFAEAVVANLRALAEDAEARLARLEARGASPAVLAAYRDLADTARAAAAALEEAIAAGEDLRAIANAQWDRVGAAAARAADLLRAEVDARSA
3. usp_38_diff_out_14_2_78 (protein) MEEKVKKLKEEIEKLLEEAKKLLEEAKKLLKEGDELAEEVLEKLDKAFDKLGELAKLLRELRELDPSQRAFVKEMTKKANELIDELTELRTEALLILAER
4. usp_38_diff_out_14_2_90 (protein) GEEELKKKYEETKKTLEEAIKKAKELKEEVKKDPSKAEEARKRLFEEWDKAADKVGELEKLIRENPEHKELNKKIIEEVNKLITELTKAALEALEAIAEA

-0.00366
0.125
0.219
-0.724
